- Protocol summary: Mouse PK analysis (blood/plasma concentration after oral administration)
- Type: in vivo
- Conditions used: mouse; mice, 90 mg/kg PO, blood, timepoint 6 h; read-out: Concentration (μM), mean calculated
Value type: concentration at 6 h (µM)
// note: answer is a bare numeric in µM

INPUT: Form field: reported concentration at 6 h of C[C@@H](C(=O)N(C)c1ccc2cc(-c3n[nH]c4c3CCC(C)(C)C4)[nH]c2c1)N1CCN(CC2CCN(c3cccc4c3n(C)c(=O)n4C3CCC(=O)NC3=O)CC2)CC1 (stereo partly shown)
OUTPUT: 2.71

----------
- Subject of test: ITK (Mus musculus, UniProt Q03526)
- Construct: mice were sacrificed and splenocytes were isolated and used to prepare protein lysates; from tissue; host or cells: mouse splenocytes (spleen) after oral dosing
- Sequence (Q03526 whole entry): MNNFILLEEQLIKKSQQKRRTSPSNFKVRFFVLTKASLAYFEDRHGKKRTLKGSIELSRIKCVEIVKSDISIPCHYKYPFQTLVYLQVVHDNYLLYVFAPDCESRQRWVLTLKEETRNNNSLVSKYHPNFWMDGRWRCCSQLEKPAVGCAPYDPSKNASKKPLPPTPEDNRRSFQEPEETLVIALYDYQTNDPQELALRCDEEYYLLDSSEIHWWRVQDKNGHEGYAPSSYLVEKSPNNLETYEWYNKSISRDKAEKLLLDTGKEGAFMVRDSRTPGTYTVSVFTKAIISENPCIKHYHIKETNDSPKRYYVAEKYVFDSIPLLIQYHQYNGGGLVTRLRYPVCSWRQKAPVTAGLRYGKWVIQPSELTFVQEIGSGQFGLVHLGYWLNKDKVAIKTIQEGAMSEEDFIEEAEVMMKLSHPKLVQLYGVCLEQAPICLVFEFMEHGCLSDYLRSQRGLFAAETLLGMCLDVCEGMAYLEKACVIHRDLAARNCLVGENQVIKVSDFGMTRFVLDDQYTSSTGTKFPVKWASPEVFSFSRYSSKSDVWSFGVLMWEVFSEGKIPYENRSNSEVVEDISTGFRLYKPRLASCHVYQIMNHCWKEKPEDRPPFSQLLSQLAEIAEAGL
- Protocol summary: Mouse PD assay for ITK degradation (Western blot, splenocytes after oral administration)
- Format: in vivo
- Conditions used: percent ITK remaining in mouse splenocytes relative to vehicle, 90 mpk PO, 6 h
Value type: ITK (%) 90 mpk PO, 6 h
// note: answer is a bare numeric in %

Example results:
[
  {
    "Compound": "C[C@@H](C(=O)N(C)c1ccc2cc(-c3n[nH]c4c3CCC(C)(C)C4)[nH]c2c1)N1CCN(CC2CCN(c3ccc4c(c3)n(C)c(=O)n4C3CCC(=O)NC3=O)CC2)CC1 (stereo partly drawn) [Compound 6]",
    "Endpoint value": 105
  },
  {
    "Compound": "CN(C(=O)C1CN(C2CCN(c3ccc4c(c3)C(=O)N(C3CCC(=O)NC3=O)C4=O)CC2)C1)c1ccc2cc(-c3n[nH]c4c3CCC(C)(C)C4)[nH]c2c1 (stereo not drawn) [Compound 35]",
    "Endpoint value": 108
  }
]

Read the next record carefully.
INPUT: # returns recorded ITK (%) 90 mpk PO, 6 h (system: ITK (Mus musculus, UniProt Q03526)) for CN(C(=O)CN1CCC2(CC1)CCN(c1ccc3c(c1)C(=O)N(C1CCC(=O)NC1=O)C3=O)C2)c1ccc2cc(-c3n[nH]c4c3C[C@@H]3C(F)(F)[C@]3(C)C4)[nH]c2c1 (stereo partly drawn) [Compound 72]
OUTPUT: 116

----------
Measured Dmax by item
- Subject of test: ITK (Homo sapiens, UniProt Q08881)
- Sequence (Q08881 whole entry): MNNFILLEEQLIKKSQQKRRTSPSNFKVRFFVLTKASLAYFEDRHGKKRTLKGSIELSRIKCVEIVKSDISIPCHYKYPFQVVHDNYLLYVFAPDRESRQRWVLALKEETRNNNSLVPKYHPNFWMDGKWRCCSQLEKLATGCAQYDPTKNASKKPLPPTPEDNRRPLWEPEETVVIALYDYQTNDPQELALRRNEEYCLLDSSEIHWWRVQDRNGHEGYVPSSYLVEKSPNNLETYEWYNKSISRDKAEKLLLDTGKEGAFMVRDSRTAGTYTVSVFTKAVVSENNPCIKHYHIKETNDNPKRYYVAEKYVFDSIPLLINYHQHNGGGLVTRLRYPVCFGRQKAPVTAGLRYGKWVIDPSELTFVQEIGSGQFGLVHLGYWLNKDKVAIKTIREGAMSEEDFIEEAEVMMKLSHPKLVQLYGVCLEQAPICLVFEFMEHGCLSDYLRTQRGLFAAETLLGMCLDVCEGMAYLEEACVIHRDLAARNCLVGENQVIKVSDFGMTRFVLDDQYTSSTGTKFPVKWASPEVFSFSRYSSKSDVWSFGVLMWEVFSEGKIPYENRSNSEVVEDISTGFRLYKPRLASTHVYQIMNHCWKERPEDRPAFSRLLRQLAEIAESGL
- Protocol summary: ITK degradation HiBiT assay
- Type: cell-based
- Set-up: expressed in transfected cells; host or cells: Molt4 (ATCC CRL-1552), monoclonal clone 1C10, engineered to carry the HiBiT tag
- Conditions used: MOLT-4, C-terminal HiBiT-tagged Molt4 cells, 4 hrs
// note: answer is a bare numeric in %

Example results:
[
  {
    "Compound": "CC1(C)CCc2c(C(=O)Nc3cnn(C4CCN(CC5CCN(c6ccc([C@@H]7CCC(=O)NC7=O)cc6)CC5)CC4)c3)n[nH]c2C1",
    "Dmax [%]": 76
  },
  {
    "Compound": "C[C@@]12Cc3[nH]nc(C(=O)Nc4cnn(CC5CCN(CC6CCN(c7ccc(C8CCC(=O)NC8=O)cn7)CC6)CC5)c4)c3C[C@@H]1C2(F)F (mixture of isomers)",
    "Dmax [%]": 84
  }
]

Read the next record carefully.
INPUT: Form field: reported Dmax of CN(C(=O)CC1CCN(CC2CCN(c3ccc(C(=O)NC4CCC(=O)NC4=O)nc3)CC2)CC1)c1ccc2cc(-c3n[nH]c4c3C[C@@H]3C(F)(F)[C@]3(C)C4)[nH]c2c1 (stereo partly drawn)
OUTPUT: 83

----------
- Subject of test: ITK (Mus musculus)
- Construct: mice were sacrificed and splenocytes were isolated and used to prepare protein lysates; from tissue; host or cells: mouse splenocytes (spleen) after oral dosing
- Protocol summary: Mouse PD assay for ITK degradation (Western blot, splenocytes after oral administration)
- Type: in vivo
- Conditions used: percent ITK remaining in mouse splenocytes relative to vehicle, 90 mpk PO, 6 h
Measured ITK (%) 90 mpk PO, 6 h by item
Show the value, then the unit it is measured in.

[
  {
    "Compound": "C[C@@H](C(=O)N(C)c1ccc2cc(-c3n[nH]c4c3CCC(C)(C)C4)[nH]c2c1)N1CCN(C(=O)C2CN(C3CCN(c4ccc5c(c4)C(=O)N(C4CCC(=O)NC4=O)C5=O)CC3)C2)CC1 (stereo partly shown)",
    "Subject of test": "ITK (Mus musculus)",
    "Endpoint value": "108%"
  },
  {
    "Compound": "C[C@@H](C(=O)N(C)c1ccc2cc(-c3n[nH]c4c3C[C@@H]3C(F)(F)[C@]3(C)C4)[nH]c2c1)N1CCN(CC2CCN(c3ccc(C4CCC(=O)NC4=O)cn3)CC2)CC1 (stereo partly shown)",
    "Subject of test": "ITK (Mus musculus)",
    "Endpoint value": "20%"
  },
  {
    "Compound": "C[C@@H](C(=O)N(C)c1ccc2cc(-c3n[nH]c4c3C[C@@H]3C(F)(F)[C@]3(C)C4)[nH]c2c1)N1CCN(CC2CCN(c3cccc4c3n(C)c(=O)n4C3CCC(=O)NC3=O)CC2)CC1 (stereo partly shown)",
    "Subject of test": "ITK (Mus musculus)",
    "Endpoint value": "58%"
  },
  {
    "Compound": "C[C@@]12Cc3[nH]nc(C(=O)Nc4cnn(CC5CN(C(=O)C6CN(C7CCN(c8ccc9c(c8)C(=O)N(C8CCC(=O)NC8=O)C9=O)CC7)C6)C5)c4)c3C[C@@H]1C2(F)F (stereo partly shown)",
    "Subject of test": "ITK (Mus musculus)",
    "Endpoint value": "82%"
  },
  {
    "Compound": "C[C@@]12Cc3[nH]nc(C(=O)Nc4cnn(CC5CN(C(=O)C6CN(c7ccc8c(c7)C(=O)N(C7CCC(=O)NC7=O)C8=O)C6)C5)c4)c3C[C@@H]1C2(F)F (stereo partly shown)",
    "Subject of test": "ITK (Mus musculus)",
    "Endpoint value": "7%"
  }
]

INPUT: Form field: reported ITK (%) 90 mpk PO, 6 h of Cn1c(=O)n(C2CCC(=O)NC2=O)c2cccc(N3CCC(CN4CCC5(CC4)CCN(c4ccc6cc(-c7n[nH]c8c7C[C@@H]7C(F)(F)[C@]7(C)C8)[nH]c6c4)C5=O)CC3)c21 (stereo partly shown)
OUTPUT: 77%

INPUT: Repeat for the following compound: CN(C(=O)CC1CCN(CC2CCN(c3ccc(C4CCC(=O)NC4=O)cn3)CC2)CC1)c1ccc2cc(-c3n[nH]c4c3C[C@@H]3C(F)(F)[C@]3(C)C4)[nH]c2c1 (stereo partly shown)
OUTPUT: 92%

----------
- Subject of test: ITK (Mus musculus)
- Construct: mice were sacrificed and splenocytes were isolated and used to prepare protein lysates; from tissue; host or cells: mouse splenocytes (spleen) after oral dosing
- Protocol summary: Mouse PD assay for ITK degradation (Western blot, splenocytes after oral administration)
- Format: in vivo
- Conditions used: percent ITK remaining in mouse splenocytes relative to vehicle, 90 mpk PO, 6 h
Value type: ITK (%) 90 mpk PO, 6 h
// note: answer is a bare numeric in %

[
  {
    "Compound": "CN(C(=O)CC1CCN(c2ccc(C3CCC(=O)NC3=O)cn2)CC1)c1ccc2cc(-c3n[nH]c4c3C[C@@H]3C(F)(F)[C@]3(C)C4)[nH]c2c1 (stereo partly drawn) [Compound 20]",
    "Measure unit": "%",
    "ITK (%) 90 mpk PO, 6 h": 66
  }
]

INPUT: Form field: reported ITK (%) 90 mpk PO, 6 h of C[C@@H](C(=O)N(C)c1ccc2cc(-c3n[nH]c4c3CCC(C)(C)C4)[nH]c2c1)N1CCN(CC2CCN(c3cccc4c3n(C)c(=O)n4C3CCC(=O)NC3=O)CC2)CC1 (stereo partly drawn) [Compound 3]
OUTPUT: 24

INPUT: Repeat for the following compound: CN(C(=O)CCN1CCN(c2ccc3c(c2)C(=O)N(C2CCC(=O)NC2=O)C3=O)CC1)c1ccc2cc(-c3n[nH]c4c3CCC(C)(C)C4)[nH]c2c1 (stereo not drawn) [Compound 2]
OUTPUT: 49.3

----------
Measured AUC(0-t) by item
- Protocol summary: Mouse PK analysis (blood/plasma concentration after oral administration)
- Type: in vivo
- Conditions used: mouse; mice, oral, plasma
Structures can show the parent of a compound that is named as a salt.

Example results:
[
  {
    "Molecule": "C[C@@]12Cc3[nH]nc(-c4cc5ccc(N6CCC7(CCN(Cc8ccc9c(c8)C(=O)N(C8CCC(=O)NC8=O)C9=O)CC7)C6=O)cc5[nH]4)c3C[C@@H]1C2(F)F (stereo partly drawn) [Compound 15, hydrochloride]",
    "AUC(0-t)": "3.14 µM·h"
  },
  {
    "Molecule": "Cn1c(=O)n(C2CCC(=O)NC2=O)c2cccc(N3CCC(CN4CCC5(CC4)CCN(c4ccc6cc(-c7n[nH]c8c7C[C@@H]7C(F)(F)[C@]7(C)C8)[nH]c6c4)C5=O)CC3)c21 (stereo partly drawn)",
    "AUC(0-t)": "1.53 µM·h"
  }
]

INPUT: Form field: reported AUC(0-t) of CC1(C)CCc2c(-c3cc4ccc(C(=O)N5CCC(C6CCN(c7ccc(C8CCC(=O)NC8=O)cn7)CC6)CC5)cc4[nH]3)n[nH]c2C1 (stereo not drawn)
OUTPUT: 0.18 µM·h

INPUT: Repeat for the following molecule: CC1(C)CCc2c(-c3cc4ccc(C(=O)N5CCC(CN6CCC7(C6)CN(c6ccc(C8CCC(=O)NC8=O)cn6)C7)CC5)cc4[nH]3)n[nH]c2C1 (stereo not drawn)
OUTPUT: 0.08 µM·h

INPUT: Repeat for the following molecule: C[C@@]12Cc3[nH]nc(C(=O)Nc4cnn(CC5CN(C(=O)C6CN(c7ccc8c(c7)C(=O)N(C7CCC(=O)NC7=O)C8=O)C6)C5)c4)c3C[C@@H]1C2(F)F (stereo partly drawn)
OUTPUT: 2.34 µM·h

INPUT: Repeat for the following molecule: CC1(C)CCc2c(-c3cc4ccc(N5CCC6(CCN(CC7CCN(c8ccc(C9CCC(=O)NC9=O)cn8)CC7)CC6)C5=O)cc4[nH]3)n[nH]c2C1 (stereo not drawn)
OUTPUT: 7.07 µM·h

INPUT: Repeat for the following molecule: C[C@@H](C(=O)N(C)c1ccc2cc(-c3n[nH]c4c3CCC(C)(C)C4)[nH]c2c1)N1CCN(C[C@H]2CCN(c3ccc4c(c3)CN(C3CCC(=O)NC3=O)C4=O)C2)CC1 (stereo partly drawn)
OUTPUT: 0.198 µM·h
